What Dmax was measured for each of the following?
target: SMARCA2 (Homo sapiens, UniProt P51531)
Construct: SMARCA2-HiBiT knock-in Hela monoclonal cell (CS302366); host or cells: HeLa monoclonal cells with heterozygous HiBiT knock-in at the endogenous SMARCA2 locus
Sequence (P51531 whole entry): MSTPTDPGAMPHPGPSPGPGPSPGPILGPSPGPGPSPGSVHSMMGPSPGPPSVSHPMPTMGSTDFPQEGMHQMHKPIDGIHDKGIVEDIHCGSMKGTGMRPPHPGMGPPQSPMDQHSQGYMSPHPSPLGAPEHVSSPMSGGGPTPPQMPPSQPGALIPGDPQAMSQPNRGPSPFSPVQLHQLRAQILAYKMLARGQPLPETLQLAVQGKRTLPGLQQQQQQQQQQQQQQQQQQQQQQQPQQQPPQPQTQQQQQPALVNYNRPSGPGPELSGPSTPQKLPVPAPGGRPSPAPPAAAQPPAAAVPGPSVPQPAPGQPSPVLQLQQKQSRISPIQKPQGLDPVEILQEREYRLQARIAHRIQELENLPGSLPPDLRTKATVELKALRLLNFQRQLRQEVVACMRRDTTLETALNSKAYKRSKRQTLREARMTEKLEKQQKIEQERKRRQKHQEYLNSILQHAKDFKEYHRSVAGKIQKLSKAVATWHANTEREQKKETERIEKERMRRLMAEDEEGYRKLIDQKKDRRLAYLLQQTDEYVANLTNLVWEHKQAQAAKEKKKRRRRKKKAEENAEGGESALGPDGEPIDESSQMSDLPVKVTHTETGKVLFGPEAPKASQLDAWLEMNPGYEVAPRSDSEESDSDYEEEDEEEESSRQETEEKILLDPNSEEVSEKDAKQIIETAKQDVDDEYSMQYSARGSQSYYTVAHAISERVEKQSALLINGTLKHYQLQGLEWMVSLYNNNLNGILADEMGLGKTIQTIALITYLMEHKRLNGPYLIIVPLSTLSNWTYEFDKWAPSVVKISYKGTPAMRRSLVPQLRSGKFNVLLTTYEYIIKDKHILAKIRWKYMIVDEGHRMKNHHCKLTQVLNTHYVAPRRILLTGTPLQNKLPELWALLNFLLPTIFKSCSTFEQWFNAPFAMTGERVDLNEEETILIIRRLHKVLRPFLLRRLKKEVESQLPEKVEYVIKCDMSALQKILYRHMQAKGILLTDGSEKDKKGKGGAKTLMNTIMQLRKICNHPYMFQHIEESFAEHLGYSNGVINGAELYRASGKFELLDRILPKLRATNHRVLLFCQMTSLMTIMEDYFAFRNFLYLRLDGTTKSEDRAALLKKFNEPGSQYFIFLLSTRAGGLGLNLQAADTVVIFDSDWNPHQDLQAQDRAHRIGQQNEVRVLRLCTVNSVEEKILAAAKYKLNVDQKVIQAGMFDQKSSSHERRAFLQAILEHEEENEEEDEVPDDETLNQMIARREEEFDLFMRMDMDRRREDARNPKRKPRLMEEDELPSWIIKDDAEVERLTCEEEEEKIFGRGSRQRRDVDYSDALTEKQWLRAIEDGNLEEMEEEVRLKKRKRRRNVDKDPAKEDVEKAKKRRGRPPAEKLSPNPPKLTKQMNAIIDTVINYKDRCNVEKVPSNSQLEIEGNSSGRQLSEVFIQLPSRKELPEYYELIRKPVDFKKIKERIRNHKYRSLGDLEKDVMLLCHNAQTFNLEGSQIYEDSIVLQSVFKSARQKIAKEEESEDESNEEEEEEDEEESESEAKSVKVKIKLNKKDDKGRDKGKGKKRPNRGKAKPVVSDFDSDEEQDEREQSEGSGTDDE
measurement.description: SMARCA2 HiBiT degradation assay in HeLa cells
Type: cell-based
condition.summary: 18 hours, highest concentration 10 μM

Query :: State, in one line, measured Dmax of O=C1CCC(N2Cc3ccc(N4CCN(Cc5cnc(S[C@@H]6C[C@@H]7CNc8nnc(-c9cc(F)cc(F)c9O)cc8N7C6)nc5)CC4)cc3C2=O)C(=O)N1 (stereo partly drawn) [Example 26]
Result :: > 75%

Query :: For O=C1CC[C@H](N2Cc3ccc(N4CCN(Cc5ccc(O[C@H]6CN7c8cc(-c9cccc(F)c9O)nnc8NC[C@@]7(C(F)F)C6)nc5)CC4)cc3C2=O)C(=O)N1 [Example 43] , write its Dmax.
Result :: > 75%

Query :: Tell us which Dmax value is on record for O=C1CCC(N2Cc3ccc(N4CCN(Cc5cnc(O[C@H]6CN7c8cc(-c9cccc(F)c9O)nnc8NC[C@@]7(C(F)F)C6)c(Cl)c5)CC4)cc3C2=O)C(=O)N1 (stereo partly drawn) [Example 85]
Result :: > 75%

====

target: SMARCA4 (Homo sapiens)
Construct: SMARCA4-HiBiT knock-in Hela monoclonal cell (CS3023226); host or cells: HeLa monoclonal cells with heterozygous HiBiT knock-in at the endogenous SMARCA4 locus
Sequence (P51532 whole entry): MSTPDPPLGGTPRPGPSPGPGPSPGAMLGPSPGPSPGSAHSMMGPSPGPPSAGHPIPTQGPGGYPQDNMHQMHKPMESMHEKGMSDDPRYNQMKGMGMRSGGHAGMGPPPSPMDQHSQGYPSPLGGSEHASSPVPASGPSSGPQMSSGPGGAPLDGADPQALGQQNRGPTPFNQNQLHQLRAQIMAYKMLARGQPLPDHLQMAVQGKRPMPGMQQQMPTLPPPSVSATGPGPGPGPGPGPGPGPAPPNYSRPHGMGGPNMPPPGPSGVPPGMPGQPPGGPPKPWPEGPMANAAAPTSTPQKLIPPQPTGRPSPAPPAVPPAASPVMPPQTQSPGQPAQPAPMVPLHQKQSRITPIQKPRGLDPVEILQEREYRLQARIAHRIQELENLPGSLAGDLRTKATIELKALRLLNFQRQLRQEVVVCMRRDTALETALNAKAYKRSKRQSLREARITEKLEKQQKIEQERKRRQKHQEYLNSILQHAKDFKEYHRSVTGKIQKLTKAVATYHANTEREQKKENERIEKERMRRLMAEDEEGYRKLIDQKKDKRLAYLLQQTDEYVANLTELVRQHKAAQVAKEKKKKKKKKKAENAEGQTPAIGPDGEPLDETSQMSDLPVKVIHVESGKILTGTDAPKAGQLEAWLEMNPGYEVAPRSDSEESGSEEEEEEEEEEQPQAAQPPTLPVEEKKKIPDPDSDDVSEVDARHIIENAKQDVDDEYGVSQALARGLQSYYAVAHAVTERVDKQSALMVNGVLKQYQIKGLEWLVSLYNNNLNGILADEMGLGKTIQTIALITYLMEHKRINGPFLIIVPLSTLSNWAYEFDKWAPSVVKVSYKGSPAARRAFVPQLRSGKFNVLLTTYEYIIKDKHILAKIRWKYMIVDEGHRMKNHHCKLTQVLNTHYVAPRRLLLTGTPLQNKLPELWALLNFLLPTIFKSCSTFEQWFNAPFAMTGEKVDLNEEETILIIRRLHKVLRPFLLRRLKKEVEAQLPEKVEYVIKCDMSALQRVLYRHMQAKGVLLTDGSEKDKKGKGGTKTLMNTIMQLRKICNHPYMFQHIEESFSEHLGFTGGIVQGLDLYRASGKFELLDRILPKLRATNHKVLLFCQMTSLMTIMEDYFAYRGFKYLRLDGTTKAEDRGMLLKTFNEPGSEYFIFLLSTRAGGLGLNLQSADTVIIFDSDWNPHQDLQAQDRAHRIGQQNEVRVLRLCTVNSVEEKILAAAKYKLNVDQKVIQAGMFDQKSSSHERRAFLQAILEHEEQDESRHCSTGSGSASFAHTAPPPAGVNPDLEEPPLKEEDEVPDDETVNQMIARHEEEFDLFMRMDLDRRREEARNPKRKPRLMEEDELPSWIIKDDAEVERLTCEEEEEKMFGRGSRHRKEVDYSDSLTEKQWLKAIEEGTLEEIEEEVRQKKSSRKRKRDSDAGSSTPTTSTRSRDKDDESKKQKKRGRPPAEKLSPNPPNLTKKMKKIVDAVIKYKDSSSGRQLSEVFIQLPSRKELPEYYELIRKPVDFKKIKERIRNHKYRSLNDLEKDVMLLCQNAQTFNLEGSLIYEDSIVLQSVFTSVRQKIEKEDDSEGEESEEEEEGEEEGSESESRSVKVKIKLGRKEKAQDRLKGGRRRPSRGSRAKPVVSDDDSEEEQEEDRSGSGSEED
measurement.description: SMARCA4 HiBiT degradation assay in HeLa cells
Assay type: cell-based
condition.summary: 18 hours, highest concentration 10 μM
observable: Dmax

Query :: Query Dmax for `CC[C@@]12CNc3nnc(-c4cccc(Cl)c4O)cc3N1C[C@H](Oc1cc(C)c(CN3CCC(c4ccc5c(c4)C(=O)N([C@H]4CCC(=O)NC4=O)C5)CC3)cn1)C2`
Result :: < 50%

Query :: Give recorded Dmax. `CC[C@@]12CNc3nnc(-c4cccc(F)c4O)cc3N1C[C@H](Oc1cnc(CN3CCN(c4ccc5c(c4)C(=O)N([C@H]4CCC(=O)NC4=O)C5)CC3)c(C)n1)C2`
Result :: < 50%

Query :: Read off the recorded Dmax for O=C1CCC(N2Cc3ccc(N4CCN(Cc5ccc(O[C@@H]6C[C@@H]7CNc8nnc(-c9cc(F)cc(F)c9O)cc8N7C6)cn5)CC4)cc3C2=O)C(=O)N1 (stereo partly drawn)
Result :: 50 to 75%

Query :: Look up Dmax of `Cc1c(CN2CCN(c3ccc4c(c3)C(=O)N([C@H]3CCC(=O)NC3=O)C4)CC2)cnc(O[C@H]2CN3c4cc(-c5cccc(F)c5O)nnc4NC[C@@]3(CF)C2)c1F` and report it.
Result :: < 50%

Query :: Please look at this molecule and report its Dmax: Cc1nc(O[C@H]2CN3c4cc(-c5cccc(F)c5O)nnc4NC[C@]3(C(F)F)C2)cnc1CN1CCN(c2ccc3c(c2)C(=O)N(C2CCC(=O)NC2=O)C3)CC1 (stereo partly drawn)
Result :: < 50%

Query :: Read the entry COc1cc(CN2CCN(c3ccc4c(c3)C(=O)N(C3CCC(=O)NC3=O)C4)CC2)cnc1O[C@H]1CN2c3cc(-c4cccc(F)c4O)nnc3NC[C@]2(C(F)F)C1 (stereo partly drawn) and write its reported Dmax.
Result :: > 75%

Query :: Read off the recorded Dmax for `Cc1nc(O[C@H]2CN3c4cc(-c5cccc(F)c5O)nnc4NC[C@@]3(C)C2)ncc1CN1CCC(c2ccc3c(c2)C(=O)N([C@H]2CCC(=O)NC2=O)C3)CC1`
Result :: < 50%

Query :: Read the entry `Cc1cc(CN2CCC(c3ccc4c(c3)C(=O)N([C@H]3CCC(=O)NC3=O)C4)CC2)ncc1O[C@H]1CN2c3cc(-c4cccc(F)c4O)nnc3NC[C@]2(C(F)F)C1` and write its reported Dmax.
Result :: 50 to 75%

Query :: Identify Dmax associated with the molecule `O=C1CC[C@H](N2Cc3ccc(N4CCN(Cc5ccc(O[C@H]6CN7c8cc(-c9cccc(F)c9O)nnc8NC[C@@]7(C(F)F)C6)nc5)CC4)cc3C2=O)C(=O)N1`
Result :: < 50%

Query :: Respond only with Dmax recorded for `CC[C@@]12CNc3nnc(-c4cccc(F)c4O)cc3N1C[C@H](Oc1cnc(CN3CCC(c4ccc5c(c4)C(=O)N([C@H]4CCC(=O)NC4=O)C5)CC3)c(F)c1)C2`
Result :: < 50%

Query :: Answer with the recorded Dmax of Cc1cc(O[C@@H]2C[C@@H]3CNc4nnc(-c5cc(F)cc(Cl)c5O)cc4N3C2)ccc1CN1CCN(c2ccc3c(c2)C(=O)N(C2CCC(=O)NC2=O)C3)CC1 (stereo partly drawn) only.
Result :: 50 to 75%

Query :: Please look at this molecule and report its Dmax: O=C1CCC(N2Cc3ccc(N4CCN(Cc5cnc(O[C@H]6CN7c8cc(-c9cccc(F)c9O)nnc8NC[C@]7(C(F)F)C6)c(F)c5)CC4)cc3C2=O)C(=O)N1 (stereo partly drawn)
Result :: 50 to 75%

Query :: Assign Dmax to the following record: `CCc1nc(CN2CCC(c3ccc4c(c3)C(=O)N([C@H]3CCC(=O)NC3=O)C4)CC2)cnc1O[C@H]1CN2c3cc(-c4cccc(F)c4O)nnc3NC[C@@]2(CF)C1`
Result :: < 50%

Query :: Return reported Dmax. Input molecule: Cc1nc(CN2CCN(c3ccc4c(c3)C(=O)N(C3CCC(=O)NC3=O)C4)CC2)cnc1O[C@H]1CN2c3cc(-c4cccc(F)c4O)nnc3NC[C@]2(C(F)F)C1 (stereo partly drawn)
Result :: < 50%

Query :: Complete the entry with Dmax for CC(C)c1nc(O[C@H]2CN3c4cc(-c5cccc(F)c5O)nnc4NC[C@]3(C(F)F)C2)ncc1CN1CCN(c2ccc3c(c2)C(=O)N(C2CCC(=O)NC2=O)C3)CC1 (stereo partly drawn)
Result :: 50 to 75%

Query :: Provide one value: measured Dmax of Cc1cc(O[C@H]2CN3c4cc(-c5cccc(F)c5O)nnc4NC[C@@]3(C)C2)ncc1CN1CCN(c2ccc3c(c2)C(=O)N(C2CCC(=O)NC2=O)C3)CC1 (stereo partly drawn)
Result :: 50 to 75%

Query :: Supply Dmax value. Item: Cc1cc(O[C@@H]2C[C@@H]3CNc4nnc(-c5cc(F)cc(F)c5O)cc4N3C2)ccc1CN1CCN(c2ccc3c(c2)C(=O)N(C2CCC(=O)NC2=O)C3)CC1 (stereo partly drawn)
Result :: 50 to 75%

Query :: Specify Dmax for CC(C)c1cc(CN2CCN(c3ccc4c(c3)C(=O)N(C3CCC(=O)NC3=O)C4)CC2)ccc1O[C@@H]1C[C@@H]2CNc3nnc(-c4cc(F)cc(F)c4O)cc3N2C1 (stereo partly drawn) and stop.
Result :: > 75%

Query :: Provide only the value of recorded Dmax for `Cc1nc(CN2CCN(c3ccc4c(c3)C(=O)N([C@H]3CCC(=O)NC3=O)C4)CC2)cnc1O[C@H]1CN2c3cc(-c4cccc(F)c4O)nnc3NC[C@]2(CF)C1`
Result :: 50 to 75%

Query :: Name the recorded Dmax of the molecule listed here: `CC[C@@]12CNc3nnc(-c4cccc(F)c4O)cc3N1C[C@H](Oc1cc(C)c(CN3CCN(c4ccc5c(c4)C(=O)N([C@H]4CCC(=O)NC4=O)C5)CC3)cn1)C2`
Result :: 50 to 75%

Query :: Kindly indicate its recorded Dmax. Item: CC[C@@]12CNc3nnc(-c4cccc(F)c4O)cc3N1C[C@H](Oc1cc(C)c(CN3CCN(c4ccc5c(c4)C(=O)N(C4CCC(=O)NC4=O)C5)CC3)c(C)n1)C2 (stereo partly drawn)
Result :: < 50%

====

Can you tell me DC50 for the items I'm about to list?
target: SMARCA2 (Homo sapiens, UniProt P51531)
Construct: SMARCA2-HiBiT knock-in Hela monoclonal cell (CS302366); host or cells: HeLa monoclonal cells with heterozygous HiBiT knock-in at the endogenous SMARCA2 locus
measurement.description: SMARCA2 HiBiT degradation assay in HeLa cells
Assay type: cell-based
condition.summary: 18 hours, highest concentration 10 μM

Query :: Using known records, supply DC50 for O=C1CCC(N2Cc3ccc(N4CCN(Cc5ccc(O[C@@H]6C[C@@H]7CNc8nnc(-c9cc(F)cc(Cl)c9O)cc8N7C6)cc5)CC4)cc3C2=O)C(=O)N1 (stereo partly drawn) [Example 22]
Result :: < 100 nM

Query :: Determine from records and report DC50 for Cc1cc(O[C@H]2CN3c4cc(-c5cccc(F)c5O)nnc4NC[C@@]3(CF)C2)ncc1CN1CCN(c2ccc3c(c2)C(=O)N([C@H]2CCC(=O)NC2=O)C3)CC1 [Example 58]
Result :: < 100 nM

Query :: Provide only the value of recorded DC50 for Cc1cc(O[C@H]2CN3c4cc(-c5cccc(F)c5O)nnc4NC[C@]3(C)C2)cnc1CN1CCN(c2ccc3c(c2)C(=O)N([C@H]2CCC(=O)NC2=O)C3)CC1 [Example 82]
Result :: < 100 nM
